- TGT: furin, P09958
- Sequence (P09958 whole entry): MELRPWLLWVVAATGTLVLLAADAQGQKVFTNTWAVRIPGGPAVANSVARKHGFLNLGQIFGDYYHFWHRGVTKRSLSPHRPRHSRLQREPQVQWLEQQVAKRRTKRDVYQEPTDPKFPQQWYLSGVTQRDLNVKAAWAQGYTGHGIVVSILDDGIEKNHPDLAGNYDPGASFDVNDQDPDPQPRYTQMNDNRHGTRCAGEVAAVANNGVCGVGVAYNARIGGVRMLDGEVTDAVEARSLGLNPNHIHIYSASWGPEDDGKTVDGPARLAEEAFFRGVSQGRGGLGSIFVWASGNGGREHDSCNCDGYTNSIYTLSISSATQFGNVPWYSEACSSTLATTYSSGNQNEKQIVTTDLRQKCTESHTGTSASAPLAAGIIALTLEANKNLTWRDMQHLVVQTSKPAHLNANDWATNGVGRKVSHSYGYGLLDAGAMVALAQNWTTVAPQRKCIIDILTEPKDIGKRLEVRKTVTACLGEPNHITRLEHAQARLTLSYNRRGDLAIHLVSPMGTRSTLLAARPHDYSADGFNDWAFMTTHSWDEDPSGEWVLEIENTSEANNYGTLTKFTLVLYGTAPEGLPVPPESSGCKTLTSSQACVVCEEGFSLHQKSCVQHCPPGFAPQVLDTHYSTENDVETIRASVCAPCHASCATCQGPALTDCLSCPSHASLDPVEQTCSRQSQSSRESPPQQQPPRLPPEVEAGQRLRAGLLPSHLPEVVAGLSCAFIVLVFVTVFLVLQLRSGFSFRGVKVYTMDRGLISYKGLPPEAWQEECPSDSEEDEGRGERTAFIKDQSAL
- ASSAY_PROTOCOL: furin cleavage Z-score vs untreated control; higher = more cleavage, active = 3.5 or more, inactive = 1 or less, 8 variable residues between constant flanks;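 further: purified furin at 1:10 enzyme:substrate in 50 mM HEPES pH 7.5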
- CONDITION: 15 min
The other results are listed elsewhere or left out. The true hit rate is not given.
Where furin cleavage Z-score equals or exceeds 4, the correct label is Met; where it does not, the label is Not met.

Enquiry: Identify whether the reported furin cleavage Z-score of the following sequence is 4 or greater: CAGVGRVLRSAGNASASA [FS-129]
Return: Met

Enquiry: Identify whether the reported furin cleavage Z-score of the following sequence is 4 or greater: CAKPRRRRKSAGNASASA [FS-1020]
Return: Met

Enquiry: Identify whether the reported furin cleavage Z-score of the following sequence is 4 or greater: CATVSGFVSLAGNASASA [HC358]
Return: Not met

Enquiry: Identify whether the reported furin cleavage Z-score of the following sequence is 4 or greater: CAKDGRRRKSAGNASASA [FS-446]
Return: Not met

Enquiry: Identify whether the reported furin cleavage Z-score of the following sequence is 4 or greater: CADQEREKRSAGNASASA [FS-1115]
Return: Not met

Enquiry: Identify whether the reported furin cleavage Z-score of the following sequence is 4 or greater: CAGVVTSTWVAGNASASA [HC2156]
Return: Not met

Enquiry: Identify whether the reported furin cleavage Z-score of the following sequence is 4 or greater: CACVVTSTWVAGNASASA [HC2160]
Return: Not met
